System: Escherichia coli TOP10;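 note: peptides expressed intracellularly from a pBAD plasmid library in pooled LB shake-flask culture, induced with 0.3% L-arabinose, DNA abundance read by NGS, three biological replicates, DESeq2 with apeglm shrinkage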
Assay: shrunken log2 fold change of peptide-encoding DNA abundance (4.5 h post-induction vs induction); higher = less antimicrobial activity (less host growth inhibition)
Conditions: time post-induction: 4.5 h; library: site-saturation at positions 5, 18, 19, 20
Category key, based on recorded shrunken log2 fold change: lower bin (below -0.2), middle bin (-0.2 to below 0.007), upper bin (0.007 or more)

RRIRNRPPRLPRPRPRPATGPRP :: middle bin
RRIRWRPPRLPRPRPRPWRTPRP :: upper bin
RRIRKRPPRLPRPRPRPWLWPRP :: upper bin

Req: Bin this entry: "RRIRCRPPRLPRPRPRPGHWPRP"
Resp: upper bin

Req: Bin this entry: "RRIRHRPPRLPRPRPRPTTEPRP"
Resp: middle bin

Req: Bin this entry: "RRIRDRPPRLPRPRPRPQIKPRP"
Resp: upper bin

Req: Bin this entry: "RRIRCRPPRLPRPRPRPHVSPRP"
Resp: lower bin

Req: Bin this entry: "RRIRDRPPRLPRPRPRPYYWPRP"
Resp: middle bin

Req: Bin this entry: "RRIRVRPPRLPRPRPRPWLCPRP"
Resp: middle bin

Req: Bin this entry: "RRIRWRPPRLPRPRPRPITDPRP"
Resp: middle bin

Req: Bin this entry: "RRIRGRPPRLPRPRPRPGTSPRP"
Resp: upper bin

Req: Bin this entry: "RRIRSRPPRLPRPRPRPSYHPRP"
Resp: lower bin

Req: Bin this entry: "RRIRFRPPRLPRPRPRPPEEPRP"
Resp: upper bin

Req: Bin this entry: "RRIRPRPPRLPRPRPRPFPIPRP"
Resp: lower bin

Req: Bin this entry: "RRIRWRPPRLPRPRPRPSISPRP"
Resp: lower bin

Req: Bin this entry: "RRIRARPPRLPRPRPRPVPQPRP"
Resp: upper bin

Req: Bin this entry: "RRIRDRPPRLPRPRPRPIQWPRP"
Resp: middle bin

Req: Bin this entry: "RRIRFRPPRLPRPRPRPCAEPRP"
Resp: upper bin

Req: Bin this entry: "RRIRVRPPRLPRPRPRPVNHPRP"
Resp: lower bin

Req: Bin this entry: "RRIRRRPPRLPRPRPRPCHVPRP"
Resp: lower bin

Entry source: the supplement of paper PMC9112550
